The measured values listed here are drawn from patent US20240109917A1.

Target: PDGFRβ (Rattus norvegicus (Rat), UniProt Q05030)
Sequence (Q05030 32-1097): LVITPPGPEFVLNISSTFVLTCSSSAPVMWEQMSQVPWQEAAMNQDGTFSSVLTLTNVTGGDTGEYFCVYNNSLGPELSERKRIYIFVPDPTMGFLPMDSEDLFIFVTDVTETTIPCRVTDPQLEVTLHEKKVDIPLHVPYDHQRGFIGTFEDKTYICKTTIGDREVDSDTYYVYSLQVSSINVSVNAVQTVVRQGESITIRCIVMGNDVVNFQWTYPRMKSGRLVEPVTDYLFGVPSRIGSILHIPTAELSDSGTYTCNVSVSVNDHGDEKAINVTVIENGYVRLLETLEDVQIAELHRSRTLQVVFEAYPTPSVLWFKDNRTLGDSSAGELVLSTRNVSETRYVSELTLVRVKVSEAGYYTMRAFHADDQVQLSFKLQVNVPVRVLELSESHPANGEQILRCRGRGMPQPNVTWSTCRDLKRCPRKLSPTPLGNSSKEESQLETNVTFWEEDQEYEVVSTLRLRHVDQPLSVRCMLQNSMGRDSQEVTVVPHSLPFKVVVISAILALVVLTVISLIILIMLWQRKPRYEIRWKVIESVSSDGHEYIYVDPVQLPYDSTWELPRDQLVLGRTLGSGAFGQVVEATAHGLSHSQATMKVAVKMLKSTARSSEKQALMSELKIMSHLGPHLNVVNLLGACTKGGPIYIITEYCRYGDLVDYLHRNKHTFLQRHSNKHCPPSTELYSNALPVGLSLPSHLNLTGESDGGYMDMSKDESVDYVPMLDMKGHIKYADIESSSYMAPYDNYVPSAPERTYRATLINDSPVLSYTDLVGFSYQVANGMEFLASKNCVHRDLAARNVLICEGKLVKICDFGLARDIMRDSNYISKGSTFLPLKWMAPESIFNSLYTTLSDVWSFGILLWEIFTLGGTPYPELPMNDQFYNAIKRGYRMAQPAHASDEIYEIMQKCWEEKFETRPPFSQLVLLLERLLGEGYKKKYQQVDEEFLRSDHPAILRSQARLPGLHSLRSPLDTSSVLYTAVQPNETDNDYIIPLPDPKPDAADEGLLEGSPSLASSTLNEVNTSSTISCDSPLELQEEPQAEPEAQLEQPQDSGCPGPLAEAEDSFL
Assay: PDGFRβ Cellular Assay (PDGFRb P-Y751 HTRF in A10 cells stimulated with PDGF-BB)
Type: cell-based
Details: read-out: PDGFR Cellular IC50
pIC50: −log10 of the molar value.
measured-metric: pIC50

{"compound": "Cc1ncc(NC(=O)CN2CCCC2(C)C)cc1NC(=O)c1cnn2cc(-c3cccnc3OCCF)sc12", "assay-system": "PDGFRβ (Rattus norvegicus (Rat), UniProt Q05030)", "operator-symbol": "=", "recorded-result": 8.62}
{"compound": "Cc1ncc(NC(=O)CN2C[C@@H](C)O[C@H](C)C2)cc1NC(=O)c1cnn2cc(-c3cn(C)nc3C)sc12", "assay-system": "PDGFRβ (Rattus norvegicus (Rat), UniProt Q05030)", "operator-symbol": "=", "recorded-result": 8.30}
{"compound": "Cc1ncc(NC(=O)CN2CCN(C)C(=O)C2)cc1NC(=O)c1cnn2cc(-c3cnn(C)c3)sc12", "assay-system": "PDGFRβ (Rattus norvegicus (Rat), UniProt Q05030)", "operator-symbol": "<", "recorded-result": 5.52}
{"compound": "Cc1ncc(C(=O)NCCN2CC3CCC2CC3)cc1NC(=O)c1cnn2cc(-c3cn(C)nc3C)sc12", "assay-system": "PDGFRβ (Rattus norvegicus (Rat), UniProt Q05030)", "operator-symbol": "=", "recorded-result": 7.73}
{"compound": "Cc1ncc(C(=O)NCCN2CCCC23CCC3)cc1NC(=O)c1cnn2cc(-c3c(C)nn(C)c3C)sc12", "assay-system": "PDGFRβ (Rattus norvegicus (Rat), UniProt Q05030)", "operator-symbol": "=", "recorded-result": 8.41}
{"compound": "CC[C@H]1CN(CC(=O)Nc2cnc(C)c(NC(=O)c3cnn4cc(-c5cccnc5OC)sc34)c2)CCO1", "assay-system": "PDGFRβ (Rattus norvegicus (Rat), UniProt Q05030)", "operator-symbol": "=", "recorded-result": 8.62}
{"compound": "Cc1ncc(C(=O)NC[C@H]2CCCN2CCO)cc1NC(=O)c1cnn2cc(-c3cnn(C)c3)sc12", "assay-system": "PDGFRβ (Rattus norvegicus (Rat), UniProt Q05030)", "operator-symbol": "=", "recorded-result": 6.17}
{"compound": "Cc1ncc(NC(=O)CN2CC(C)(C)C2)cc1NC(=O)c1cnn2cc(-c3cccnc3C)sc12", "assay-system": "PDGFRβ (Rattus norvegicus (Rat), UniProt Q05030)", "operator-symbol": "=", "recorded-result": 8.26}
{"compound": "COc1ncccc1-c1cn2ncc(C(=O)Nc3cc(NC(=O)CN4C[C@H](C)O[C@@H](C)C4)cnc3C)c2s1 (relative stereo) [Example 368]", "assay-system": "PDGFRβ (Rattus norvegicus (Rat), UniProt Q05030)", "operator-symbol": "=", "recorded-result": 8.43}
{"compound": "COc1ncccc1-c1cn2ncc(C(=O)Nc3cc(C(=O)NCCN4CC(C)(C)C4)cnc3C)c2s1", "assay-system": "PDGFRβ (Rattus norvegicus (Rat), UniProt Q05030)", "operator-symbol": "=", "recorded-result": 8.16}
{"compound": "Cc1ncc(C(=O)NCCN2CC3CCC2CC3)cc1NC(=O)c1cnn2cc(-c3cnn(CS(C)(=O)=O)c3)sc12", "assay-system": "PDGFRβ (Rattus norvegicus (Rat), UniProt Q05030)", "operator-symbol": "=", "recorded-result": 6.00}
{"compound": "COc1ncccc1-c1cn2ncc(C(=O)Nc3cc(NC(=O)OC[C@@H]4CCCN4C)cnc3C)c2s1", "assay-system": "PDGFRβ (Rattus norvegicus (Rat), UniProt Q05030)", "operator-symbol": "=", "recorded-result": 8.36}
{"compound": "COc1ccc(-c2cn3ncc(C(=O)Nc4cc(NC(=O)CN5CC(C)(C)C5)cnc4C)c3s2)cn1", "assay-system": "PDGFRβ (Rattus norvegicus (Rat), UniProt Q05030)", "operator-symbol": "=", "recorded-result": 8.21}
{"compound": "Cc1ncc(C(=O)NCCN(CCO)CC2CCCCC2)cc1NC(=O)c1cnn2cc(-c3cnn(C)c3)sc12", "assay-system": "PDGFRβ (Rattus norvegicus (Rat), UniProt Q05030)", "operator-symbol": "=", "recorded-result": 8.02}
{"compound": "Cc1ncc(C(=O)NCCN2CCCC23CCC3)cc1NC(=O)c1cnn2cc(-c3cnn(C)c3)sc12", "assay-system": "PDGFRβ (Rattus norvegicus (Rat), UniProt Q05030)", "operator-symbol": "=", "recorded-result": 8.22}
